target: rat P2X4R (Rattus norvegicus, UniProt P51577, C126T/C149T)
Sequence (P51577 1-388 C126T/C149T): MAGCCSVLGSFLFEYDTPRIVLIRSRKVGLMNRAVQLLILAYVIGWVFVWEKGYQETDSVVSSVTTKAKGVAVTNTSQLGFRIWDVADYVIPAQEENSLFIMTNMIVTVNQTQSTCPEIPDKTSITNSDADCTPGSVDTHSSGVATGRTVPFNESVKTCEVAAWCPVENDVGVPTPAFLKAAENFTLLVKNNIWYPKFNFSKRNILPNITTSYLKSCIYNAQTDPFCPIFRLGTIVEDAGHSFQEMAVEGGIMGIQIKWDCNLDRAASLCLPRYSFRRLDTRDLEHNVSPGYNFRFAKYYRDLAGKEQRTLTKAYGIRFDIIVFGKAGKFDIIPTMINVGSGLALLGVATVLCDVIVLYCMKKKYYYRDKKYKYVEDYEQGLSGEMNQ
method: whole-cell patch clamp, peak current dose-response
measure: EC50 (µM)
Give a bare numeral; the unit µM is implied.

Please report EC50 for the following molecule: Nc1ncnc2c1ncn2[C@@H]1O[C@H](COP(=O)(O)OP(=O)(O)OP(=O)(O)O)[C@@H](O)[C@H]1O
65

====

target: rat P2X4R (Rattus norvegicus, UniProt P51577, C159T)
method: whole-cell patch clamp, peak current dose-response
measure: pEC50
Remember the convention: pEC50 equals -log10 of concentration in molar.

Look up and report measured pEC50 for this entry: Nc1ncnc2c1ncn2[C@@H]1O[C@H](COP(=O)(O)OP(=O)(O)OP(=O)(O)O)[C@@H](O)[C@H]1O
4.92

====

target: rat P2X4R (Rattus norvegicus, UniProt P51577, C126A)
method: whole-cell patch clamp, peak current dose-response
measure: EC50 (µM)
Just the number please, in µM, no unit attached.

Output EC50 of Nc1ncnc2c1ncn2[C@@H]1O[C@H](COP(=O)(O)OP(=O)(O)OP(=O)(O)O)[C@@H](O)[C@H]1O [ATP]
24

====

target: rat P2X4R (Rattus norvegicus, UniProt P51577, C165A)
method: whole-cell patch clamp, peak current dose-response
measure: pEC50
# pEC50: negative log10 of molar concentration; output just the value

Report pEC50, nothing else, for this molecule: Nc1ncnc2c1ncn2[C@@H]1O[C@H](COP(=O)(O)OP(=O)(O)OP(=O)(O)O)[C@@H](O)[C@H]1O [ATP]
4.38

====

target: rat P2X4R (Rattus norvegicus, UniProt P51577, C132T)
Sequence (P51577 1-388 C132T): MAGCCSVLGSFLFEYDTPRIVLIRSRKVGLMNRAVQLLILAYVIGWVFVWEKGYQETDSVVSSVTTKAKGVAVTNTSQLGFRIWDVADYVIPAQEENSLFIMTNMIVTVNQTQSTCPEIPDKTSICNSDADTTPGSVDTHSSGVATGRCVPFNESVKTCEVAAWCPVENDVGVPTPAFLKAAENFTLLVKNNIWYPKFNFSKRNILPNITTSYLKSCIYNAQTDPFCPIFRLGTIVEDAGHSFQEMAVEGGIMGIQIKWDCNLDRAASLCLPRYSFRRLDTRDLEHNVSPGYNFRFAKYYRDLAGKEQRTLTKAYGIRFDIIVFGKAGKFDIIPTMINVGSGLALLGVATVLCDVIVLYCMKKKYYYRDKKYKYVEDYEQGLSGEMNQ
method: whole-cell patch clamp, peak current dose-response
measure: EC50
Field note: include the unit after the figure.

Report EC50 under test system rat P2X4R (Rattus norvegicus, UniProt P51577, C132T) for Nc1ncnc2c1ncn2[C@@H]1O[C@H](COP(=O)(O)OP(=O)(O)OP(=O)(O)O)[C@@H](O)[C@H]1O [ATP] .
8.2 µM

====

target: rat P2X4R (Rattus norvegicus, UniProt P51577, C159A)
Sequence (P51577 1-388 C159A): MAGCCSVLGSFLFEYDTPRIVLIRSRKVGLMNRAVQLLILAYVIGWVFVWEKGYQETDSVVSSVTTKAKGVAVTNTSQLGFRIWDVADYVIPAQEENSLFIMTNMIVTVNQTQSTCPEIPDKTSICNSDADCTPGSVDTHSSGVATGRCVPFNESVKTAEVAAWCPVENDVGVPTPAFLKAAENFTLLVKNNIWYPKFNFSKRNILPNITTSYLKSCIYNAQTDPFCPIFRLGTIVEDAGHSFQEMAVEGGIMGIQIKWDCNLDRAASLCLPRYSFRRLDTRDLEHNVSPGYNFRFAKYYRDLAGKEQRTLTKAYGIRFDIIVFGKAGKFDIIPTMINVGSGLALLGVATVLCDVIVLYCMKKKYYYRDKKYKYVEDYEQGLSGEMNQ
method: whole-cell patch clamp, peak current dose-response
measure: pEC50
Kindly note that pEC50 refers to -log10 of the concentration in mol/L and answer with the value alone.

# return recorded pEC50 for entry Nc1ncnc2c1ncn2[C@@H]1O[C@H](COP(=O)(O)OP(=O)(O)OP(=O)(O)O)[C@@H](O)[C@H]1O
5.29

====

target: rat P2X4R (Rattus norvegicus, UniProt P51577, C261T/C270T)
method: whole-cell patch clamp, peak current dose-response
Type: cell-based
measure: pEC50
# pEC50: negative log10 of molar concentration; output just the value

For rat P2X4R (Rattus norvegicus, UniProt P51577, C261T/C270T), give the measured pEC50 of the entry Nc1ncnc2c1ncn2[C@@H]1O[C@H](COP(=O)(O)OP(=O)(O)OP(=O)(O)O)[C@@H](O)[C@H]1O [ATP]
5.77

====

target: rat P2X4R (Rattus norvegicus, UniProt P51577)
Sequence (P51577 1-388): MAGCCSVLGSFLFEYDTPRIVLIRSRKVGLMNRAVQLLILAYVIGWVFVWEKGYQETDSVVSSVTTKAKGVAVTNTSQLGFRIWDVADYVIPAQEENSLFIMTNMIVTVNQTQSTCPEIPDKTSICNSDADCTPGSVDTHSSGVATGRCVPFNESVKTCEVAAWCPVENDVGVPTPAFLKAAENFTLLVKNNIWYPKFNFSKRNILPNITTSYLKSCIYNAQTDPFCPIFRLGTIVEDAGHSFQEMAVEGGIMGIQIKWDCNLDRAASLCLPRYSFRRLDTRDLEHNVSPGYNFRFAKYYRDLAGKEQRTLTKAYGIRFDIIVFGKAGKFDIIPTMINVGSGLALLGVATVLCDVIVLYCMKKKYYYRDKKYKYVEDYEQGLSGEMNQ
method: whole-cell patch clamp, peak current dose-response
measure: EC50

For the compound Nc1ncnc2c1ncn2[C@@H]1O[C@H](COP(=O)(O)OP(=O)(O)OP(=O)(O)O)[C@@H](O)[C@H]1O , give its measured EC50 value.
4.6 µM

====

target: rat P2X4R (Rattus norvegicus, UniProt P51577, C217R)
Sequence (P51577 1-388 C217R): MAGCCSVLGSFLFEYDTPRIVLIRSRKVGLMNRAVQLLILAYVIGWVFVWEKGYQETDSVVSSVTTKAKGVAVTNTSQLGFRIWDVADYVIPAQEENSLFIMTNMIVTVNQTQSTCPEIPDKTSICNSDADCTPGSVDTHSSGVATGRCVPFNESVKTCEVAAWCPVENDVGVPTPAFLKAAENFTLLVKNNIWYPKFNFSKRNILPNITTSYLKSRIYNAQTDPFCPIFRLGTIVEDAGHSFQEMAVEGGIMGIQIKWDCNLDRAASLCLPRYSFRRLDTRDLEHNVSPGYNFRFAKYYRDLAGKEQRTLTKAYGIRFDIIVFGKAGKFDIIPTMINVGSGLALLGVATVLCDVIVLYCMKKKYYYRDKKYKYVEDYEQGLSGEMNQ
method: whole-cell patch clamp, peak current dose-response
measure: pEC50
Remember the convention: pEC50 equals -log10 of concentration in molar.

Give me measured pEC50, please, for this compound: Nc1ncnc2c1ncn2[C@@H]1O[C@H](COP(=O)(O)OP(=O)(O)OP(=O)(O)O)[C@@H](O)[C@H]1O
5.04

====

target: rat P2X4R (Rattus norvegicus, UniProt P51577, C165T)
method: whole-cell patch clamp, peak current dose-response
measure: EC50

Kindly indicate its recorded EC50. Item: Nc1ncnc2c1ncn2[C@@H]1O[C@H](COP(=O)(O)OP(=O)(O)OP(=O)(O)O)[C@@H](O)[C@H]1O
45 µM

====

target: rat P2X4R (Rattus norvegicus, UniProt P51577, C116A)
method: whole-cell patch clamp, peak current dose-response
measure: EC50
Note to self: number, then unit, no commentary.

Return EC50 (reported value) for this compound: Nc1ncnc2c1ncn2[C@@H]1O[C@H](COP(=O)(O)OP(=O)(O)OP(=O)(O)O)[C@@H](O)[C@H]1O [ATP]
27 µM

====

target: rat P2X4R (Rattus norvegicus, UniProt P51577, C261A)
method: whole-cell patch clamp, peak current dose-response
measure: EC50 (µM)
Report the figure in µM without appending any unit label.

// Input: Nc1ncnc2c1ncn2[C@@H]1O[C@H](COP(=O)(O)OP(=O)(O)OP(=O)(O)O)[C@@H](O)[C@H]1O [ATP] . Output its EC50 only.
5.5
